B1: Azoarcus group I ribozyme (parent)
chain: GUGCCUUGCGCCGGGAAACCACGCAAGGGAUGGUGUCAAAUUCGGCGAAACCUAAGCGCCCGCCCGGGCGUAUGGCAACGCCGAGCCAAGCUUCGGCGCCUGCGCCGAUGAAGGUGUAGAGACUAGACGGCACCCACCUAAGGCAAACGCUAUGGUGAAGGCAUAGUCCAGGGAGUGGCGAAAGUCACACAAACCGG

variants of: B1; experiment: reverse-splicing fitness (ratio to wild type); higher = more active; in vitro selection; Mg2+ level not given
# if value of reverse-splicing fitness reaches 0.008, tag true (1); if it stays below, tag false (0)

# variant_identifier, classification
rows = [
    ("C82A A111U A120C A145U C150G C169A U176A", "true (1)"),
    ("C82G A111G A120G C150U U176A", "true (1)"),
    ("C82G A120U A145U C150U C169A U176C", "false (0)"),
    ("C82A A111C A120U C150G C169U", "false (0)"),
    ("C82G A120G A145G C150G", "true (1)"),
    ("A111C C150A C169A U176A", "true (1)"),
    ("A111G C169A U176C", "true (1)"),
    ("C82U A111C A120C A145C C150G U176G", "false (0)"),
]

Where do these numbers come from? They come from the RNAGym collection of RNA variant scans (doi:10.1093/molbev/msab373).
